Biological target: T1, Oct6 DNA-binding domain (BD-Oct6) (Mus musculus (B6), UniProt P21952 317-416)
T1 sequence: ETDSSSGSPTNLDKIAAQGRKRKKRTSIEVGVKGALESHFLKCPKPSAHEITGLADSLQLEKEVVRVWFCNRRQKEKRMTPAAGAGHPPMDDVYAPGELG
Assay: EMSA; 10% glycerol, 20 mM HEPES pH 7.8, 45 mM KCl, 10 mM NaCl, 1 mM EDTA, 1 mM DTT, 0.2 ug/uL BSA, 0.1% NP-40, 50 ng poly-dIdC; 20 ng each GST protein; room temperature 30 min (heterodimers 4 C); 6% PAGE 0.25x TBE
Conditions: protein: recombinant; tags: GST (N-terminal, pGEX-6P-1); label: 32P-dCTP fill-in of the 5' (dG)5 overhangs of both strands (Methods; control probes are given with GGG)

>  <binder>
34 (dsDNA) DNA 1: GGGGGTTGTTCCCTTTGACTTCTTGTGACTTTAACAAATTCTAAAGCCCCC DNA 2: GGGGGCTTTAGAATTTGTTAAAGTCACAAGAAGTCAAAGGGAACAACCCCC

>  <binding result>
no binding

$$$$
>  <binder>
123 (dsDNA) DNA 1: GGGGGAGTGCTATTTTGTCGAGAAATTGTAGAAGACACCCCC DNA 2: GGGGGTGTCTTCTACAATTTCTCGACAAAATAGCACTCCCCC

>  <binding result>
no binding

$$$$
>  <binder>
87 (dsDNA) DNA 1: GGGGGTTATGACTGTTTAATAATATATATTGTGTTCTGGCCCCCC DNA 2: GGGGGGCCAGAACACAATATATATTATTAAACAGTCATAACCCCC

>  <binding result>
binds

$$$$
>  <binder>
55 (dsDNA) DNA 1: GGGGGGTAGATTATTTGTCCACCATTCACAAGCACTGAGTTCAATAACCCCCC DNA 2: GGGGGGTTATTGAACTCAGTGCTTGTGAATGGTGGACAAATAATCTACCCCCC

>  <binding result>
binds

$$$$
>  <binder>
72 (dsDNA) DNA 1: GGGGGGTTTGTTTTTTAAGGAACTGTAATGAACAAATGTCAGGACCCCC DNA 2: GGGGGTCCTGACATTTGTTCATTACAGTTCCTTAAAAAACAAACCCCCC

>  <binding result>
binds

$$$$
>  <binder>
124 (dsDNA) DNA 1: GGGGGCTTATGCTTCTATTCTACACAATTCCACAACCCCCC DNA 2: GGGGGGTTGTGGAATTGTGTAGAATAGAAGCATAAGCCCCC

>  <binding result>
no binding

$$$$
>  <binder>
6 (dsDNA) DNA 1: GGGGGAGGACTTAATTGTTCGCATTTCTGTATTCTGCCCCC DNA 2: GGGGGCAGAATACAGAAATGCGAACAATTAAGTCCTCCCCC

>  <binding result>
binds

$$$$
>  <binder>
58 (dsDNA) DNA 1: GGGGGTGAGATGGAGGAAATAAGTCTTATTGTTGTTCTCCCCCCC DNA 2: GGGGGGGAGAACAACAATAAGACTTATTTCCTCCATCTCACCCCC

>  <binding result>
binds

$$$$
>  <binder>
112 (dsDNA) DNA 1: GGGGGTGTGTTCATTTGTTTTTATTTTAGAAGGAGTCCCCC DNA 2: GGGGGACTCCTTCTAAAATAAAAACAAATGAACACACCCCC

>  <binding result>
binds

$$$$
>  <binder>
33 (dsDNA) DNA 1: GGGGGATAGTACATTTGTTGTCATTAACAAATCAGTCCCCC DNA 2: GGGGGACTGATTTGTTAATGACAACAAATGTACTATCCCCC

>  <binding result>
binds

$$$$
>  <binder>
95 (dsDNA) DNA 1: GGGGGGGTTTTCTTTTGTACACTTAATATCCGCTGGGGCCCCC DNA 2: GGGGGCCCCAGCGGATATTAAGTGTACAAAAGAAAACCCCCCC

>  <binding result>
binds

$$$$
>  <binder>
82 (dsDNA) DNA 1: GGGGGACTATTTATTTGTGTTTTCCTATTCACTTTACATCCCCC DNA 2: GGGGGATGTAAAGTGAATAGGAAAACACAAATAAATAGTCCCCC

>  <binding result>
binds

$$$$
>  <binder>
4b (dsDNA) DNA 1: GGGGGAGTCTCTGTAAAATTAACAAACAAGTTACCCCCC DNA 2: GGGGGGTAACTTGTTTGTTAATTTTACAGAGACTCCCCC

>  <binding result>
binds

$$$$
>  <binder>
80 (dsDNA) DNA 1: GGGGGCATCCCAAATTGTTTTCTCACTTTTGTACCACAGATAGATCCCCC DNA 2: GGGGGATCTATCTGTGGTACAAAAGTGAGAAAACAATTTGGGATGCCCCC

>  <binding result>
binds

$$$$
>  <binder>
117 (dsDNA) DNA 1: GGGGGGAAAAACAAAGATTTAGTATAAACCCCC DNA 2: GGGGGTTTATACTAAATCTTTGTTTTTCCCCCC

>  <binding result>
no binding

$$$$
>  <binder>
3 (dsDNA) DNA 1: GGGGGACCTATACTTTGTTTTTATTGCCTAGTAATCCCCC DNA 2: GGGGGATTACTAGGCAATAAAAACAAAGTATAGGTCCCCC

>  <binding result>
no binding

$$$$
>  <binder>
91 (dsDNA) DNA 1: GGGGGTTTGTTTGTTTGTTTTTAAAAATAAGGTCTCGGGCCCCC DNA 2: GGGGGCCCGAGACCTTATTTTTAAAAACAAACAAACAAACCCCC

>  <binding result>
binds

$$$$
>  <binder>
76 (dsDNA) DNA 1: GGGGGCAGGTATGATTGTCCATATTGCTAATAAACCCCCC DNA 2: GGGGGGTTTATTAGCAATATGGACAATCATACCTGCCCCC

>  <binding result>
binds

$$$$
